melting point values, listed per item
Endpoint: melting point

>  <Compound>
O=[PH](c1ccc(Cl)cc1)c1ccc(Cl)cc1

>  <Recorded Value>
124 °C

$$$$
>  <Compound>
CCC(C)N1CCc2cnc3ccnn3c21 (centres undefined)

>  <Recorded Value>
199 °C

$$$$
>  <Compound>
Cc1c(C=Cc2ccccc2)cccc1[N+](=O)[O-]

>  <Recorded Value>
75.9 °C

$$$$
>  <Compound>
CC(C)[C@H]1COC(=O)N1C(=O)[C@@H](CC(=O)OCc1ccccc1)Cc1ccccc1

>  <Recorded Value>
118 to 120 °C

$$$$
>  <Compound>
O=C(/C=C/c1ccc(O)c(OC(F)(F)F)c1)/C=C/c1ccc(O)c(OC(F)(F)F)c1

>  <Recorded Value>
103 to 105 °C

$$$$
>  <Compound>
CCOC(=O)C(C)(C(=O)OCC)c1ccc(N)c(C(F)(F)F)c1

>  <Recorded Value>
73 to 75 °C

$$$$
>  <Compound>
O=S(=O)(NCCCN1c2ccccc2CCc2ccc(Cl)cc21)c1ccc(OC(F)(F)F)cc1

>  <Recorded Value>
119 to 121 °C

$$$$
>  <Compound>
CC(C)(C)c1cc(C(=O)c2ccco2)cc2c1OCC2(C)C

>  <Recorded Value>
103 to 104 °C

$$$$
>  <Compound>
COc1ccc(C(NCC(=O)Nc2c(C(C)C)cccc2C(C)C)c2ccccc2)cc1 (centres undefined)

>  <Recorded Value>
117 to 118 °C

$$$$
>  <Compound>
CC1=CC2Cc3[nH]c(=O)ccc3C3(C1)NCCCC23 (centres undefined)

>  <Recorded Value>
270 to 271 °C

$$$$
>  <Compound>
N#Cc1ccc(-c2nc(C(=O)Nc3nccs3)c(-c3ccc(F)cc3)[nH]2)cc1

>  <Recorded Value>
> 250 °C

$$$$
>  <Compound>
COc1ccc(CSc2ccc([N+](=O)[O-])cc2CO)cc1

>  <Recorded Value>
101 to 102 °C

$$$$
>  <Compound>
CCOP(=O)(OCC)C(C)Oc1cc(-n2c(=O)cc(C(F)(F)F)n(C)c2=O)c(F)cc1Cl (centres undefined)

>  <Recorded Value>
103 °C

$$$$
>  <Compound>
CC(C)(C)OC(=O)N1CCC[C@H]1CNc1ccc2ncc(I)n2n1

>  <Recorded Value>
138 to 139 °C

$$$$
>  <Compound>
CN(C)Cc1ccccc1Sc1ccc([N+](=O)[O-])cc1[N+](=O)[O-]

>  <Recorded Value>
128 to 129 °C

$$$$
>  <Compound>
CCCCOC(=O)C(COC(C)(C)C)NC(=O)c1ccc2c(Cl)cnc(NC(=N)N)c2c1 (racemic)

>  <Recorded Value>
215 to 219 °C

$$$$
>  <Compound>
CC(=O)NNc1nc(C(F)(F)F)nc(-c2ccc(S(C)(=O)=O)cc2)c1-c1ccccc1F

>  <Recorded Value>
281 to 283 °C

$$$$
>  <Compound>
O=C(O)C[C@@]1(C[N+](=O)[O-])C[C@H]2CCC[C@H]21

>  <Recorded Value>
64 to 66 °C

$$$$
>  <Compound>
CCCCn1c(=O)c(NC(=O)Nc2c(C(C)C)cccc2C(C)C)c(-c2cccc(OCCC)c2)c2cccnc21

>  <Recorded Value>
154 to 156 °C

$$$$
>  <Compound>
CCCc1nc2ccnn2c(Cl)c1Cc1ccc(-c2ccccc2C#N)cc1

>  <Recorded Value>
137 °C

$$$$
>  <Compound>
Cn1nc(CC2CC2)c2sc(Cc3cccc(C(F)(F)F)c3)c(O)c2c1=O

>  <Recorded Value>
92 to 93 °C

$$$$
>  <Compound>
CC1(c2cc(/C=C/c3ccc(C(=O)O)cc3)ccc2O)CCCCC1

>  <Recorded Value>
229 °C

$$$$
>  <Compound>
Ic1ccc(-c2cc[nH]c2)cc1

>  <Recorded Value>
164 to 165 °C

$$$$
>  <Compound>
CCOC(=O)CCc1cc(Cl)ccc1C(=O)CCCNC(=O)CCCNC(C)=O

>  <Recorded Value>
95 °C

$$$$
>  <Compound>
CCCCc1ncc(CC(NC(=O)CCc2ccccc2)C(=O)O)n1Cc1ccccc1Cl (centres undefined)

>  <Recorded Value>
194 to 196 °C

$$$$
>  <Compound>
CCCCOC(=O)C(C)Oc1ccc(COc2ccc(Cl)cc2)cc1 (centres undefined)

>  <Recorded Value>
66 °C

$$$$
>  <Compound>
CS(=O)(=O)c1ccc(-c2cc3c(cc2Cc2cc(F)cc(F)c2)OCCO3)cc1

>  <Recorded Value>
160 to 162 °C

$$$$
>  <Compound>
CCCCNC(=O)Oc1cccc(NC(=O)CC(C)(OCC)OCC)c1

>  <Recorded Value>
130 °C

$$$$
>  <Compound>
CN1CCN(C(=O)Nc2ccccc2CCc2cc(C(C)(C)C)c(O)c(C(C)(C)C)c2)CC1

>  <Recorded Value>
134 to 137 °C

$$$$
>  <Compound>
CCNc1cc(C(C)=NO)ccn1

>  <Recorded Value>
155 to 156 °C

$$$$
>  <Compound>
Nc1c2c(nc3cccc(F)c13)CCCC2

>  <Recorded Value>
175 °C

$$$$
>  <Compound>
Clc1ccc(Cn2cnc3c(-c4ccco4)ncnc32)cc1

>  <Recorded Value>
156 to 159 °C

$$$$
>  <Compound>
Cc1c(C#N)c(N)nc(Cl)c1C#N

>  <Recorded Value>
210 °C

$$$$
>  <Compound>
CC(=O)Nc1cccc(NC(=O)Cc2ccc(-n3c(-c4cccnc4N)nc4ccc(C)nc43)cc2)c1

>  <Recorded Value>
207 to 209 °C

$$$$
>  <Compound>
Cc1c2n(c3ccccc13)C(=O)C(Cc1cccnc1)CC2 (centres undefined)

>  <Recorded Value>
158 to 160 °C

$$$$
>  <Compound>
Cc1ccc(-c2cc(C(O)/C=C/c3ccc(C(=O)O)cc3)cc3c2C(C)(C)CCC3(C)C)cc1 (centres undefined)

>  <Recorded Value>
179 °C

$$$$
>  <Compound>
CCc1cnc(C2=NC(C)(C(C)C)C(=O)N2)c(C(=O)OC(C)CC)c1 (centres undefined)

>  <Recorded Value>
83 to 87 °C

$$$$
>  <Compound>
CCOCc1nc2c(N)nc3ccccc3c2n1CCCCS(=O)(=O)NCc1ccc(OC)cc1

>  <Recorded Value>
101 °C

$$$$
>  <Compound>
CC#CC(C)(C)NC(=O)C(Br)CC (centres undefined)

>  <Recorded Value>
79 to 81 °C

$$$$

// data source = a melting point compilation (Tetko et al.; mined from patent text by program, amines drawn as free bases though some values may be those of a salt)
